Source of measurements: ChEMBL document CHEMBL5518172

targetDesc: Metallo-beta-lactamase type 2 (Bacteria)
Sequence (C7C422 whole entry): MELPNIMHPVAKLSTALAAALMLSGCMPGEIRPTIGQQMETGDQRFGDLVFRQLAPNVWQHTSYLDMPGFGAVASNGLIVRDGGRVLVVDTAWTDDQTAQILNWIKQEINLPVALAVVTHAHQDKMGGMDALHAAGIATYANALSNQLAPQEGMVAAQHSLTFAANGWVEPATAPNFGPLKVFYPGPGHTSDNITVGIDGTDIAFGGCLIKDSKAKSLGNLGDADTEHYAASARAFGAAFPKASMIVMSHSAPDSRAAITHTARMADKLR
runDescription: Inhibition of recombinant NDM-1 (unknown origin) expressed in Escherichia coli BL21 (DE3) cells using meropenem as substrate by spectrometric analysis
Measured pIC50 of individual entries
Here pIC50 is given on a logarithmic scale as minus log10 of the concentration in mol/L.

Record excerpt, results attached:
CC(=O)NOC(=O)OCc1ccccc1	5.49
CCCCCOC(=O)ONC(=O)CCCc1ccccc1	5.73
CC(C)COC(=O)ONC(=O)CCC1CCCCC1	5.33
O=C(OCc1ccccc1)ONC(=O)c1ccccc1	5.58
CCOC(=O)ONC(=O)CCCc1ccccc1	6.00
CCOC(=O)ONC(=O)CCC1CCCCC1	5.49
O=C(CCC1CCCCC1)NOC(=O)OCc1ccccc1	5.90
CCOC(=O)ONC(=O)CC(c1ccccc1)c1ccccc1	5.65

For the compound O=C(CC(c1ccccc1)c1ccccc1)NOC(=O)OCc1ccccc1 , give its reported pIC50.
6.08

###

runDescription: Inhibition of recombinant serine beta lactamase OXA-48 (unknown origin) expressed in Escherichia coli BL21 (DE3) cells using meropenem as substrate by spectrometric analysis
Set-up: species or system Bacteria
Measured pIC50 of individual entries
Here pIC50 is given on a logarithmic scale as minus log10 of the concentration in mol/L.

Record excerpt, results attached:
O=C(OCc1ccccc1)ONC(=O)C1CCCCC1	5.17
CCCCCOC(=O)ONC(=O)CCCc1ccccc1	5.99
CC(C)COC(=O)ONC(=O)CCc1ccccc1	5.56

For the compound O=C(CC(c1ccccc1)c1ccccc1)NOC(=O)OCc1ccccc1 , give its reported pIC50.
5.26

For the compound CCOC(=O)ONC(=O)CCCc1ccccc1 , give its reported pIC50.
5.54
